- Test system: T-47D
- ASSAY_EXPLANATION: Caspase cascade activation assay (Example 90)
- Assay type: cell-based, human
- ASSAY_CONDITIONS: Homo sapiens, T47D, 24 h
PROPERTY_NAME: pEC50
Scale explanation: pEC50 corresponds to minus log10 of a concentration expressed in moles per litre.

QUERY: Quick one: pEC50 of COC(=O)/C(C)=C\CC12OC(C)(C)C3CC(C=C4C(=O)c5c(O)c6c(c(CC=C(C)C)c5OC431)OC(C)(CCC=C(C)C)C=C6)C2=O (stereo not shown) [Example 4, Methyl Gambogate] ?
RESULT: 6.32

* * *

- ASSAY_EXPLANATION: Inhibition of cell proliferation (GI50) and cell death (LC50), CellTiter 96 (Example 91)
- Type: cell-based, human
- ASSAY_CONDITIONS: human, mrc-5 cells; MRC-5 non-transformed fibroblasts; 48 h; dose for 50% cell death
- Protocol: T-47D, ZR-75-1, PC-3, human prostate cancer cell line DU-145, human non-small cell lung cancer cell line A-549, human small cell lung cancer cell line SHP-77, HL-60 and MRC-5 cells were grown and harvested as in Example 90. […] This determines the possible background absorbance of the test compounds. No absorbance for gambogic acid or its analogs or derivatives was found at 490 nm. After the 2-4 h incubation, the samples were read for absorbance as above (ATest). […]
PROPERTY_NAME: CC50 at 48 h (nM)
The response must be a number in nM with no trailing unit.

QUERY: Quick one: CC50 at 48 h of CC(C)=CCC[C@]1(C)C=Cc2c(O)c3c(c(CC=C(C)C)c2O1)O[C@]12C(=C[C@@H]4C[C@H]1C(C)(C)O[C@@]2(C/C=C(/C)C(=O)O)C4=O)C3=O [Example 1, Gambogic Acid] ?
RESULT: 500

* * *

- Tested on: PC-3
- ASSAY_EXPLANATION: Caspase cascade activation assay (Example 90)
- Assay type: cell-based, human
- ASSAY_CONDITIONS: Homo sapiens, PC-3, 24 h
PROPERTY_NAME: EC50 (nM)
Lab book: enter the figure in nM, no units written.

QUERY: Identify the measured EC50 of COC(=O)/C(C)=C\CC12OC(C)(C)C3CC(C=C4C(=O)c5c(O)c6c(c(CC=C(C)C)c5OC431)OC(C)(CCC=C(C)C)C=C6)C2=O (stereo not shown) [Example 4, Methyl Gambogate] for PC-3.
RESULT: 1330

* * *

Please provide measured caspase activity (Ratio) for the entries that follow.
- Tested on: HL-60
- ASSAY_EXPLANATION: Caspase cascade activation assay (Example 90)
- Type: cell-based, human
- ASSAY_CONDITIONS: HL-60; 24 h incubation, 0.16 to 10 µM final; net RFU ratio to control
I'd appreciate a reply containing only the number, no unit.

QUERY: Can you look up the measured caspase activity (Ratio) of CC(C)=CCCC1(C)C=Cc2c(O)c3c(c(CC=C(C)C)c2O1)OC12C(=CC4CC1C(C)(C)OC2(C/C=C(/C)C(=O)N1CCCCC1)C4=O)C3=O (stereo not shown) [Example 5, Gambogyl Piperidine] for me?
RESULT: 5.2

QUERY: Can you handle CC(C)=CCC/C(C)=C/Cc1c(O)c(CC=C(C)C)c2c(c1O)C(=O)C1=CC3CC4C(C)(C)OC(C/C=C(/C)C(=O)O)(C3=O)C14O2 (stereo not shown) [Example 2, Gambogenic Acid] next?
RESULT: 5.6

QUERY: Repeat with CC(C)=CCC[C@]1(C)C=Cc2c(O)c3c(c(CC=C(C)C)c2O1)O[C@]12C(=C[C@@H]4C[C@H]1C(C)(C)O[C@@]2(C/C=C(/C)C(=O)O)C4=O)C3=O [Example 1, Gambogic Acid]
RESULT: 6.3

QUERY: Also check COC(=O)/C(C)=C\CC12OC(C)(C)C3CC(C=C4C(=O)c5c(O)c6c(c(CC=C(C)C)c5OC431)OC(C)(CCC=C(C)C)C=C6)C2=O (stereo not shown) [Example 4, Methyl Gambogate]
RESULT: 7.7

* * *

- System: T-47D
- ASSAY_EXPLANATION: Caspase cascade activation assay (Example 90)
- Assay type: cell-based, human
- ASSAY_CONDITIONS: T-47D; 24 h incubation, 0.16 to 10 µM final; net RFU ratio to control
PROPERTY_NAME: caspase activity (Ratio)
Just the number, please, no unit after it.

QUERY: I am curious: what caspase activity (Ratio) value has been reported for CC(C)=CCC/C(C)=C/Cc1c(O)c(CC=C(C)C)c2c(c1O)C(=O)C1=CC3CC4C(C)(C)OC(C/C=C(/C)C(=O)O)(C3=O)C14O2 (stereo not drawn) [Example 2, Gambogenic Acid] ?
RESULT: 16.9

QUERY: // same read-out, input: CC(C)=CCC/C(C)=C/Cc1c(O)c(CC=C(C)C)c2c(c1O)C(=O)C1=CC3CC4C(C)(C)OC(C/C=C(/C)C=O)(C3=O)C14O2 (stereo not drawn) [Example 3, Gambogenin]
RESULT: 7.0

QUERY: Same thing, different compound: COC(=O)/C(C)=C\CC12OC(C)(C)C3CC(C=C4C(=O)c5c(OC)c6c(c(CC=C(C)C)c5OC431)OC(C)(CCC=C(C)C)C=C6)C2=O (stereo not drawn) [Example 6, Methyl-6-methoxy-gambogate]
RESULT: 12.0

* * *

- Tested on: ZR-75-1
- ASSAY_EXPLANATION: Caspase cascade activation assay (Example 90)
- Format: cell-based, human
- ASSAY_CONDITIONS: Homo sapiens, ZR-75-1, 24 h
PROPERTY_NAME: pEC50
// pEC50 is dimensionless: -log10 of concentration (M)

QUERY: Reported pEC50, molecule COC(=O)/C(C)=C\CC12OC(C)(C)C3CC(C=C4C(=O)c5c(O)c6c(c(CC=C(C)C)c5OC431)OC(C)(CCC=C(C)C)C=C6)C2=O (stereo not shown) [Example 4, Methyl Gambogate] : ____
RESULT: 5.79

* * *

- Tested on: T-47D
- ASSAY_EXPLANATION: Caspase cascade activation assay (Example 90)
- Format: cell-based, human
- ASSAY_CONDITIONS: T-47D; 24 h incubation, 0.16 to 10 µM final; net RFU ratio to control
PROPERTY_NAME: caspase activity (Ratio)
Lab note: record the figure alone, no unit after it.

QUERY: Given the entry COC(=O)/C(C)=C\CC12OC(C)(C)C3CC(C=C4C(=O)c5c(O)c6c(c(CC=C(C)C)c5OC431)OC(C)(CCC=C(C)C)C=C6)C2=O (stereo not drawn) [Example 4, Methyl Gambogate] , report its measured caspase activity (Ratio).
RESULT: 16.8

QUERY: Next compound up: CC(C)=CCCC1(C)C=Cc2c(O)c3c(c(CC=C(C)C)c2O1)OC12C(=CC4CC1C(C)(C)OC2(C/C=C(/C)C(=O)N1CCCCC1)C4=O)C3=O (stereo not drawn)
RESULT: 13.9

QUERY: What do you get for "CC(C)=CCC[C@]1(C)C=Cc2c(O)c3c(c(CC=C(C)C)c2O1)O[C@]12C(=C[C@@H]4C[C@H]1C(C)(C)O[C@@]2(C/C=C(/C)C(=O)O)C4=O)C3=O" ?
RESULT: 13.6

* * *

- Tested on: ZR-75-1
- ASSAY_EXPLANATION: Caspase cascade activation assay (Example 90)
- Assay type: cell-based, human
- ASSAY_CONDITIONS: ZR-75-1; 24 h incubation, 0.16 to 10 µM final; net RFU ratio to control
- Description: Human breast cancer cell lines T-47D and ZR-75-1, human prostate cancer cell line PC-3, human leukemia cancer cell line HL-60 and human non-transformed fibroblast cell line MRC-5 cells were grown according to media component mixtures designated by The American Type Culture Collection + 10% FCS (Life Technologies, Inc.), in a 5% CO2 -95% humidity incubator at 37° C. […] The EC50 (nM) was determined by a sigmoidal dose-response calculation (Prism 2.0, GraphPad Software Inc.). […]
Exercise: for every item that follows, state its recorded caspase activity (Ratio).
Write the value as a bare number.

QUERY: # lookup: caspase activity (Ratio) of CC(C)=CCCC1(C)C=Cc2c(O)c3c(c(CC=C(C)C)c2O1)OC12C(=CC4CC1C(C)(C)OC2(C/C=C(/C)C(=O)N1CCCCC1)C4=O)C3=O (stereo not shown)
RESULT: 14.3

QUERY: Next compound: CC(C)=CCC/C(C)=C/Cc1c(O)c(CC=C(C)C)c2c(c1O)C(=O)C1=CC3CC4C(C)(C)OC(C/C=C(/C)C(=O)O)(C3=O)C14O2 (stereo not shown)
RESULT: 14.2

QUERY: Let us now turn to "CC(C)=CCC[C@]1(C)C=Cc2c(O)c3c(c(CC=C(C)C)c2O1)O[C@]12C(=C[C@@H]4C[C@H]1C(C)(C)O[C@@]2(C/C=C(/C)C(=O)O)C4=O)C3=O"
RESULT: 11.9

QUERY: For COC(=O)/C(C)=C\CC12OC(C)(C)C3CC(C=C4C(=O)c5c(O)c6c(c(CC=C(C)C)c5OC431)OC(C)(CCC=C(C)C)C=C6)C2=O (stereo not shown) [Example 4, Methyl Gambogate] then?
RESULT: 14.9
